- Tested on: SN12C
- assay.protocol: NCI tumour cell line growth inhibition, 48 h
The source made the active and inactive calls. Cut-off read from the data, not from the text of the source: active = GI50 up to about 1.1 µM and inactive = higher.
# GI50 annotations

molecule	assayed.system	GI50
CCOC(=O)C(=CNc1ccc(NC2=NCC(C)S2)cc1)C(=O)OCC (stereo unspecified)	SN12C	41 µM (inactive)
CS(=O)(=O)c1ccc(/C=N/NC(N)=S)cc1	SN12C	> 100 µM (inactive)
CC1=C(C(=O)NNC(=O)C[N+](C)(C)C)CC(C(=O)NNC(=O)C[N+](C)(C)C)=C(C)N1	SN12C	> 100 µM (inactive)
CC(=O)Nc1ccc(/C=C/c2ccc(NC(=O)Nc3ccc(/C=C/c4ccc(NC(C)=O)cc4S(=O)(=O)O)c(S(=O)(=O)O)c3)cc2S(=O)(=O)O)c(S(=O)(=O)O)c1	SN12C	> 100 µM (inactive)
c1cc(NNc2cccc(-c3nnn[nH]3)c2)cc(-c2nnn[nH]2)c1	SN12C	> 100 µM (inactive)

Ask | Give a short answer stating reported GI50 for `COc1ccc2c(C)cc(C)nc2n1` .
Reply | > 100 µM (inactive)

====

- Test system: MDA-MB-435
- assay.protocol: NCI tumour cell line growth inhibition, 48 h
Calls of active or inactive are those of the source. Cut-off read from the data, not from the text of the source: active = GI50 up to about 1.1 µM and inactive = higher.
Can you answer with just one of these options? active, inactive

Study these solved cases before continuing.
compound	group.label
CCOC(=O)c1ccc(Nc2nc3ccccc3n3cccc23)cc1	inactive
O=C(C[n+]1ccc2ccccc2c1)c1ccc2ccc3ccccc3c2c1	active
NCC(O)CSP(=O)(O)O (stereo not given)	inactive
COC1OC(COC(=O)c2cc(O)c(O)c(O)c2)C(OC(=O)c2cc(O)c(O)c(O)c2)C(OC(=O)c2cc(O)c(O)c(O)c2)C1OC(=O)c1cc(O)c(O)c(O)c1 (stereo not given)	inactive
COc1ccc2c(c1)/C(=C\c1c(-c3ccccc3)nc3n1CCS3)C(=O)N2	inactive
S=C(c1c[nH]c2ccccc12)N1CCOCC1	inactive

Ask | Status in this test for C[C@]12CC[C@@H]3c4cc(Br)c(O)c(Br)c4CC[C@H]3[C@@H]1CC(Br)C2=O (stereo not given in full) ?
Reply | inactive

Ask | Status in this test for `NC1=C(N2CCCCC2)C(=O)NC2=N/C(=C\c3ccco3)C(=O)N21` ?
Reply | inactive

Ask | Status in this test for O=C1N2CCc3c([nH]c4ccccc34)C23CC2CCCC12S3 (stereo not given) ?
Reply | inactive

Ask | Status in this test for CCOP(=O)(OCC)C(Nc1ccc(Cl)cc1)c1ccc(F)cc1 (stereo not given) ?
Reply | inactive

====

- System: SNB-75
- assay.protocol: NCI tumour cell line growth inhibition, 48 h
Calls of active or inactive are those of the source. No stated cut-off is given here; in the data, active = GI50 up to about 1.1 µM and inactive = higher.
parameter.measured: GI50

molecule	parameter.measured	measured.value
CC(C)(C)/N=C1/CC(C)(C)c2ccccc2/C(=N\c2ccccc2)S1	GI50	32.5 µM (inactive)
NC1=C(N2CCCCC2)C(=O)NC2=N/C(=C\c3ccco3)C(=O)N21	GI50	> 100 µM (inactive)
CNC(=O)Oc1ccc(-c2cn3cc(OC(=O)NC)ccc3n2)cc1	GI50	62.4 µM (inactive)
Nc1nc(SC/C=C/c2ccccc2)c2[nH]cnc2n1	GI50	28.6 µM (inactive)

Ask | Give the observed GI50 of CCOP1(=O)CC(C)=C(Cl)C(OC)C1 (stereo unspecified) for SNB-75.
Reply | > 100 µM (inactive)

Ask | Give the observed GI50 of CC(C)=CC(Cc1ccccc1)S(=O)(=O)c1nc2ccccc2s1 (stereo unspecified) for SNB-75.
Reply | 16.6 µM (inactive)

Ask | Give the observed GI50 of O=c1[nH]c(=O)n(C2CC(O)C(CO)O2)cc1COCC(F)(F)F (stereo unspecified) for SNB-75.
Reply | > 100 µM (inactive)

Ask | Give the observed GI50 of COc1cccc(NC(=O)CC(=O)N2N=C(C)C(/N=N/c3ccc(C(=O)O)cc3)C2=O)c1 (stereo unspecified) for SNB-75.
Reply | 16.6 µM (inactive)

Ask | Give the observed GI50 of CC(=O)OC1CC[C@@]2(C)C(=CC[C@@H]3[C@@H]2CC[C@]2(C)Nc4nn(S(C)(=O)=O)cc4C[C@@H]32)C1 (stereo partly specified) for SNB-75.
Reply | 24.2 µM (inactive)

Ask | Give the observed GI50 of `CC(C)=C1C(=O)c2c(Cl)sc(Cl)c2C1=O` for SNB-75.
Reply | 18.4 µM (inactive)

Ask | Give the observed GI50 of `CN(CO)c1nc(N(C)CO)nc(N(C)CO)n1` for SNB-75.
Reply | 18.5 µM (inactive)

====

- System: NCI-H23
- assay.protocol: NCI tumour cell line growth inhibition, 48 h
The source made the active and inactive calls. Cut-off read from the data, not from the text of the source: active = GI50 up to about 1.1 µM and inactive = higher.
parameter.measured: GI50

molecule	GI50
CCP(=S)(CC)CCl	> 100 µM (inactive)
O=C(c1ccc(Cl)cc1)c1ccc(OCCCOc2ccc(C(=O)c3ccc(Cl)cc3)cc2Cl)c(Cl)c1	> 100 µM (inactive)
COC(=O)[C@]1(C)CCC[C@@]2(C)[C@@H]3C[C@@H]4[C@H]5C[C@@]3(CC[C@@H]21)C[C@@]45C	14.6 µM (inactive)
O=C1[C@H]2ON(c3ccccc3)C(c3ccc(Cl)cc3Cl)[C@H]2C(=O)N1c1ccc(Cc2ccc(N3C(=O)[C@@H]4ON(c5ccccc5)C(c5ccc(Cl)cc5Cl)[C@@H]4C3=O)cc2)cc1 (stereo partly drawn)	> 100 µM (inactive)
Cc1ccc2c(O)cc(-c3cccs3)nc2n1	7.71 µM (inactive)
CC(C)C(Sc1nc(-c2ccccc2)c(-c2ccccc2)[nH]1)C(=O)N/N=C/c1ccc(Cl)cc1 (stereo not drawn)	22.3 µM (inactive)

Ask | Give a short answer stating reported GI50 for C#C/C=C/CC1OC(C(Br)CC)CC(Br)C2CC1O2 (stereo not drawn) .
Reply | > 100 µM (inactive)

Ask | Give a short answer stating reported GI50 for NC(=O)c1c(NC=O)ncn1C1OCC(O)C(O)C1O (stereo not drawn) .
Reply | > 100 µM (inactive)

Ask | Give a short answer stating reported GI50 for c1ccc(C(c2cccc3c2ccc2ccccc23)C(c2ccccc2)c2cccc3c2ccc2ccccc23)cc1 (stereo not drawn) .
Reply | > 100 µM (inactive)

Ask | Give a short answer stating reported GI50 for OCC1NCC(O)C(O)C1O (stereo not drawn) .
Reply | > 100 µM (inactive)

Ask | Give a short answer stating reported GI50 for `O=C1c2ccccc2C(=O)c2nn(N=P(CP(=Nn3nc4c(n3)C(=O)c3ccccc3C4=O)(c3ccccc3)c3ccccc3)(c3ccccc3)c3ccccc3)nc21` .
Reply | > 100 µM (inactive)

====

- Tested on: SK-MEL-28
- assay.protocol: NCI tumour cell line growth inhibition, 48 h
Active and inactive are the calls of the source. Rule as the data show it: active = GI50 up to about 1.1 µM and inactive = higher.
parameter.measured: GI50

molecule	assayed.system	parameter.measured	measured.value
Cc1nc(C)c(N2CCNCC2)c(O)n1	SK-MEL-28	GI50	> 100 µM (inactive)
CCOC(=O)C(=CNc1ccc(NC2=NCC(C)S2)cc1)C(=O)OCC (configuration not stated)	SK-MEL-28	GI50	20.8 µM (inactive)
O=C1C(=O)N(c2ccc(Cl)c(Cl)c2)C(=O)C(=O)C1c1nc2ccccc2o1	SK-MEL-28	GI50	> 100 µM (inactive)
C/C(=N\N=C(N)N)c1sc(-c2nc(C)c(/C(C)=N/N=C(N)N)s2)nc1C	SK-MEL-28	GI50	> 100 µM (inactive)

Ask | Give a short answer stating reported GI50 for `O=C(O)c1[nH]c2c([N+](=O)[O-])cc([N+](=O)[O-])cc2c1C(=O)O` .
Reply | > 100 µM (inactive)

Ask | Give a short answer stating reported GI50 for `Clc1nncc2sc(-c3ccccc3)nc12` .
Reply | 12.8 µM (inactive)

Ask | Give a short answer stating reported GI50 for `On1c(-c2ccccc2)nc2ccccc2c1=S` .
Reply | 7.41 µM (inactive)

Ask | Give a short answer stating reported GI50 for `C/C(=N\N=C(/S)N(C)C)c1cccc[n+]1[O-]` .
Reply | 73.5 µM (inactive)

Ask | Give a short answer stating reported GI50 for O=C(/C=C/c1ccc(O)cc1)c1ccc(O)cc1 [4,4'-DIHYDROXYCHALCONE] .
Reply | 28.1 µM (inactive)

Ask | Give a short answer stating reported GI50 for `CCCCCC(O)(CCCCC)CCCCCCCCC1=C(O)C(=O)c2ccccc2C1=O` .
Reply | 11.7 µM (inactive)

Ask | Give a short answer stating reported GI50 for O=C1CC2C(=O)c3ccccc3CC2c2ccccc21 (configuration not stated) .
Reply | 70.6 µM (inactive)

Ask | Give a short answer stating reported GI50 for COc1cc2c(cc1OC)[C@H]1C(COC(=O)Nc3ccccc3)CN1CC2 (some centres not stated) .
Reply | > 100 µM (inactive)

Ask | Give a short answer stating reported GI50 for `Nc1n[nH]c2nc3ccc(C(F)(F)F)cc3nc12` .
Reply | 21.1 µM (inactive)

Ask | Give a short answer stating reported GI50 for O=C(O)CC(C(=O)O)C1c2ccccc2-c2ccccc21 (configuration not stated) .
Reply | > 100 µM (inactive)

Ask | Give a short answer stating reported GI50 for `CCCCCCCCCCSC(=O)NC` .
Reply | 26.3 µM (inactive)

Recorded values, source ChEMBL document CHEMBL1201862.
